system: U2OS; assay: Multiplex assay against U2OS; format: toxicity, cell-based; conditions: human, 12 h, 10 µM, compound concentration 10 uM, replicate 2
true (1) if Population Membrane Permeable-Phenotype (%) is below 20%. false (0) if not; exact matches included in false (0).

## Input hey, is Population Membrane Permeable-Phenotype (%) for O=S(=O)(c1ccccc1)c1cnc2c(N3CCNCC3)cccc2c1 [INTEPIRDINE] lower than 20% or not?
## Output true (1)

## Input Now the same for Cc1ccccc1C(=O)Nc1ccc(C(=O)N2CCCC(N(C)C)c3ccccc32)cc1.Cl (configuration not stated)
## Output true (1)

## Input Now the same for O=C(NCC(=O)N1CC[C@H](N[C@H]2CC[C@@](O)(c3ccc(-c4ncccn4)cn3)CC2)C1)c1cccc(C(F)(F)F)c1 [PF-4136309]
## Output false (0)

## Input Now the same for N[C@@]1(C(=O)O)CO[C@H]2[C@H](C(=O)O)[C@H]21 [LY-379268]
## Output true (1)

## Input Now the same for CCCN1CCC[C@@H]2Cc3n[nH]cc3C[C@H]21.Cl [QUINPIROLE HYDROCHLORIDE]
## Output true (1)

## Input Now the same for C[C@H](NC(=O)c1c(C(F)F)nn(C)c1Oc1cccc(C(F)(F)F)c1)c1ccc(C(=O)O)cc1 [PALUPIPRANT]
## Output true (1)

## Input Now the same for Cc1ccc(F)cc1C(=O)Nc1ccc(C(=O)N2Cc3cccn3Cc3ccccc32)c(Cl)c1 [LIXIVAPTAN]
## Output false (0)

====

system: Fibroblast; assay: Multiplex assay against human fibroblast; type: toxicity, cell-based; settings: 48 h, 10 µM, compound concentration 10 uM, replicate 1
Everything with Population Mitotic Cells (%) lower than 30% is Criterion not met; everything else, including exactly 30%, is Criterion met.

Examples with answers:
>>> df
                                   compound      discretelabel
0           CCCC(CCC)C(=O)O [VALPROIC ACID]      Criterion met
1  c1cc(OCCCN2CCCCC2)ccc1CN1CCCCC1 [JNJ-5207852]      Criterion met
2  CSc1ccccc1N1CCN(CCCCCC(=O)NC2CCCc3ccccc32)CC1.Cl (stereo not given)  Criterion not met

## Input Is Population Mitotic Cells (%) for O=C1COc2nccc(-c3ccccc3F)c2CN1Cc1cc(C(F)(F)F)cc(C(F)(F)F)c1 at or above 30%?
## Output Criterion not met

## Input Now the same for C[C@H](NC(=O)c1c(C(F)F)nn(C)c1Oc1cccc(C(F)(F)F)c1)c1ccc(C(=O)O)cc1 [PALUPIPRANT]
## Output Criterion not met

====

tested on: HEK-293T; assay: Multiplex assay against HEK293T; assay type: toxicity, cell-based; conditions: human, 24 h, 10 µM, compound concentration 10 uM, replicate 1
For each record, write down the corresponding Population Mitochondria Different-Phenotype (%).
Numbers only, in %.

As a guide, the following entries are already answered.
compound	testSystem	recordedResult
O=C1COc2nccc(-c3ccccc3F)c2CN1Cc1cc(C(F)(F)F)cc(C(F)(F)F)c1	HEK-293T	71
Oc1c(CN2CCN(c3ccccn3)CC2)cc(Cl)c2cccnc12	HEK-293T	65
CCCN1CCC[C@@H]2Cc3n[nH]cc3C[C@H]21.Cl [QUINPIROLE HYDROCHLORIDE]	HEK-293T	38

For each entry beneath this line, provide reported Population Mitochondria Different-Phenotype (%).
1. O=C(O)Cc1ccccc1Nc1c(Cl)cccc1Cl
2. CSc1ccccc1N1CCN(CCCCCC(=O)NC2CCCc3ccccc32)CC1.Cl (stereo not drawn)
3. CCNC1(C(N)=O)CCN(c2ncnc3c2nc(-c2ccccc2Cl)n3-c2ccc(Cl)cc2)CC1
4. Cl.Clc1ccc2nsnc2c1NC1=NCCN1 [TIZANIDINE HYDROCHLORIDE]

## Output
1. 29
2. 98
3. 79
4. 23

Attribution: ChEMBL document CHEMBL5058577
